Test system: Escherichia coli TOP10
Experiment: shrunken log2 fold change of peptide-encoding DNA abundance (4.5 h post-induction vs induction); higher = less antimicrobial activity (less host growth inhibition)
Conditions: time post-induction: 4.5 h; library: site-saturation at positions 5, 18, 19, 20
Decide using shrunken log2 fold change: a value greater than or equal to 0.2 is 1, a smaller one is 0.

See these solved cases before continuing.
Chain: RRIRPRPPRLPRPRPRPIDEPRP
Class label: 0
//
Chain: RRIRIRPPRLPRPRPRPVNRPRP
Class label: 0

Input line: Form field: shrunken log2 fold change at least 0.2? Entry: "RRIRKRPPRLPRPRPRPQMAPRP"
Output line: 1

Input line: Form field: shrunken log2 fold change at least 0.2? Entry: "RRIRKRPPRLPRPRPRPSDTPRP"
Output line: 1

Input line: Form field: shrunken log2 fold change at least 0.2? Entry: "RRIRCRPPRLPRPRPRPCHRPRP"
Output line: 0

Input line: Form field: shrunken log2 fold change at least 0.2? Entry: "RRIRSRPPRLPRPRPRPHIWPRP"
Output line: 0

Input line: Form field: shrunken log2 fold change at least 0.2? Entry: "RRIRCRPPRLPRPRPRPKLSPRP"
Output line: 1

Input line: Form field: shrunken log2 fold change at least 0.2? Entry: "RRIRFRPPRLPRPRPRPPCGPRP"
Output line: 1

Input line: Form field: shrunken log2 fold change at least 0.2? Entry: "RRIRVRPPRLPRPRPRPLCEPRP"
Output line: 0

Input line: Form field: shrunken log2 fold change at least 0.2? Entry: "RRIRCRPPRLPRPRPRPPTDPRP"
Output line: 1

----------
System: Escherichia coli TOP10
Assay: shrunken log2 fold change of peptide-encoding DNA abundance (4.5 h post-induction vs induction); higher = less antimicrobial activity (less host growth inhibition)
Conditions: time post-induction: 4.5 h; library: site-saturation at positions 5, 18, 19, 20
Endpoint: shrunken log2 fold change
Lab note: record the figure alone, no unit after it.

Use these answered entries as a reference point.
Chain: RRIRSRPPRLPRPRPRPTKPPRP
shrunken log2 fold change: 0.196
--
Chain: RRIRCRPPRLPRPRPRPDWLPRP
shrunken log2 fold change: -0.0386
--
Chain: RRIRVRPPRLPRPRPRPHFEPRP
shrunken log2 fold change: 0.193
--
Chain: RRIRIRPPRLPRPRPRPTFRPRP
shrunken log2 fold change: -0.261
--
Chain: RRIRCRPPRLPRPRPRPAQDPRP
shrunken log2 fold change: 0.289

Input line: Which measured shrunken log2 fold change value corresponds to "RRIRERPPRLPRPRPRPQLEPRP" ?
Output line: -0.0385

Input line: Which measured shrunken log2 fold change value corresponds to "RRIRQRPPRLPRPRPRPFYDPRP" ?
Output line: -0.208

Input line: Which measured shrunken log2 fold change value corresponds to "RRIRIRPPRLPRPRPRPCQGPRP" ?
Output line: -0.0156

Input line: Which measured shrunken log2 fold change value corresponds to "RRIRDRPPRLPRPRPRPVEDPRP" ?
Output line: 0.429

Input line: Which measured shrunken log2 fold change value corresponds to "RRIRFRPPRLPRPRPRPYFVPRP" ?
Output line: -0.59

Input line: Which measured shrunken log2 fold change value corresponds to "RRIRMRPPRLPRPRPRPKLKPRP" ?
Output line: 2.65

Input line: Which measured shrunken log2 fold change value corresponds to "RRIRNRPPRLPRPRPRPPTTPRP" ?
Output line: 0.19

Input line: Which measured shrunken log2 fold change value corresponds to "RRIRPRPPRLPRPRPRPSKVPRP" ?
Output line: -0.223

Input line: Which measured shrunken log2 fold change value corresponds to "RRIRDRPPRLPRPRPRPEDFPRP" ?
Output line: 0.427

Input line: Which measured shrunken log2 fold change value corresponds to "RRIRFRPPRLPRPRPRPYCYPRP" ?
Output line: -0.749

----------
Tested on: Escherichia coli TOP10
Test: shrunken log2 fold change of peptide-encoding DNA abundance (4.5 h post-induction vs induction); higher = less antimicrobial activity (less host growth inhibition)
Settings: time post-induction: 4.5 h; library: site-saturation at positions 5, 18, 19, 20
Some sequences, each annotated with its measured shrunken log2 fold change.
Lab note: record the figure alone, no unit after it.

Use these answered entries as a reference point.
Chain: RRIRWRPPRLPRPRPRPTRYPRP
Target or test system: Escherichia coli TOP10
Endpoint: shrunken log2 fold change
Value measured: -0.104

Chain: RRIRIRPPRLPRPRPRPNKAPRP
Target or test system: Escherichia coli TOP10
Endpoint: shrunken log2 fold change
Value measured: 0.0028

Chain: RRIRRRPPRLPRPRPRPFWNPRP
Target or test system: Escherichia coli TOP10
Endpoint: shrunken log2 fold change
Value measured: 0.0866

Input line: Which measured shrunken log2 fold change value corresponds to "RRIRGRPPRLPRPRPRPKRYPRP" ?
Output line: 0.253

Input line: Which measured shrunken log2 fold change value corresponds to "RRIRRRPPRLPRPRPRPQPEPRP" ?
Output line: 0.0541

Input line: Which measured shrunken log2 fold change value corresponds to "RRIRVRPPRLPRPRPRPFHAPRP" ?
Output line: -0.229

----------
System: Escherichia coli TOP10
Experiment: shrunken log2 fold change of peptide-encoding DNA abundance (4.5 h post-induction vs induction); higher = less antimicrobial activity (less host growth inhibition)
Settings: time post-induction: 4.5 h; library: site-saturation at positions 5, 18, 19, 20
Endpoint: shrunken log2 fold change
Lab note: record the figure alone, no unit after it.

Use these answered entries as a reference point.
Chain: RRIRWRPPRLPRPRPRPGCRPRP
Target or test system: Escherichia coli TOP10
shrunken log2 fold change: 0.417

Chain: RRIRCRPPRLPRPRPRPDRQPRP
Target or test system: Escherichia coli TOP10
shrunken log2 fold change: 0.00868

Chain: RRIRYRPPRLPRPRPRPHYKPRP
Target or test system: Escherichia coli TOP10
shrunken log2 fold change: -0.316

Input line: Test system Escherichia coli TOP10; read-out shrunken log2 fold change; what value for "RRIRVRPPRLPRPRPRPNFNPRP" ?
Output line: -0.143

Input line: Test system Escherichia coli TOP10; read-out shrunken log2 fold change; what value for "RRIRMRPPRLPRPRPRPHGGPRP" ?
Output line: -0.0492

Input line: Test system Escherichia coli TOP10; read-out shrunken log2 fold change; what value for "RRIRFRPPRLPRPRPRPVMSPRP" ?
Output line: -0.153

Input line: Test system Escherichia coli TOP10; read-out shrunken log2 fold change; what value for "RRIRWRPPRLPRPRPRPPERPRP" ?
Output line: 0.816

Input line: Test system Escherichia coli TOP10; read-out shrunken log2 fold change; what value for "RRIRDRPPRLPRPRPRPFGAPRP" ?
Output line: 0.191

Input line: Test system Escherichia coli TOP10; read-out shrunken log2 fold change; what value for "RRIRHRPPRLPRPRPRPPQGPRP" ?
Output line: 0.133

Input line: Test system Escherichia coli TOP10; read-out shrunken log2 fold change; what value for "RRIRFRPPRLPRPRPRPGQWPRP" ?
Output line: -0.00218

Input line: Test system Escherichia coli TOP10; read-out shrunken log2 fold change; what value for "RRIRKRPPRLPRPRPRPWRRPRP" ?
Output line: 0.0332

Input line: Test system Escherichia coli TOP10; read-out shrunken log2 fold change; what value for "RRIRIRPPRLPRPRPRPPMIPRP" ?
Output line: -0.112

----------
Tested on: Escherichia coli TOP10
Experiment: shrunken log2 fold change of peptide-encoding DNA abundance (4.5 h post-induction vs induction); higher = less antimicrobial activity (less host growth inhibition)
Settings: time post-induction: 4.5 h; library: site-saturation at positions 5, 18, 19, 20
Some sequences, each annotated with its measured shrunken log2 fold change.
Lab note: record the figure alone, no unit after it.

Use these answered entries as a reference point.
Chain: RRIRERPPRLPRPRPRPLKLPRP
Target or test system: Escherichia coli TOP10
Value measured: -0.118

Chain: RRIRVRPPRLPRPRPRPSTVPRP
Target or test system: Escherichia coli TOP10
Value measured: -0.0673

Chain: RRIRNRPPRLPRPRPRPPVTPRP
Target or test system: Escherichia coli TOP10
Value measured: 0.228

Chain: RRIRKRPPRLPRPRPRPVICPRP
Target or test system: Escherichia coli TOP10
Value measured: 0.115

Chain: RRIRFRPPRLPRPRPRPKDIPRP
Target or test system: Escherichia coli TOP10;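 also: peptides expressed intracellularly from a pBAD plasmid library in pooled LB shake-flask culture, induced with 0.3% L-arabinose, DNA abundance read by NGS, three biological replicates, DESeq2 with apeglm shrinkage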
Value measured: -0.676

Input line: Which measured shrunken log2 fold change value corresponds to "RRIRTRPPRLPRPRPRPDWNPRP" ?
Output line: -0.39

Input line: Which measured shrunken log2 fold change value corresponds to "RRIRRRPPRLPRPRPRPRGWPRP" ?
Output line: 0.979

Input line: Which measured shrunken log2 fold change value corresponds to "RRIRNRPPRLPRPRPRPVEIPRP" ?
Output line: -0.0323

Input line: Which measured shrunken log2 fold change value corresponds to "RRIRIRPPRLPRPRPRPTYAPRP" ?
Output line: -0.612

Input line: Which measured shrunken log2 fold change value corresponds to "RRIRERPPRLPRPRPRPHLMPRP" ?
Output line: 1.19

Input line: Which measured shrunken log2 fold change value corresponds to "RRIRRRPPRLPRPRPRPLAGPRP" ?
Output line: 0.477

Reference source: the supplement of paper PMC9112550
